Field: % stimulation. Provide a value for each of the compounds that follow.
# assayed-system: human S1P1 receptor (Homo sapiens, UniProt P21453)
# Construct: expressed in transfected cells; membranes used
# Sequence (P21453 whole entry): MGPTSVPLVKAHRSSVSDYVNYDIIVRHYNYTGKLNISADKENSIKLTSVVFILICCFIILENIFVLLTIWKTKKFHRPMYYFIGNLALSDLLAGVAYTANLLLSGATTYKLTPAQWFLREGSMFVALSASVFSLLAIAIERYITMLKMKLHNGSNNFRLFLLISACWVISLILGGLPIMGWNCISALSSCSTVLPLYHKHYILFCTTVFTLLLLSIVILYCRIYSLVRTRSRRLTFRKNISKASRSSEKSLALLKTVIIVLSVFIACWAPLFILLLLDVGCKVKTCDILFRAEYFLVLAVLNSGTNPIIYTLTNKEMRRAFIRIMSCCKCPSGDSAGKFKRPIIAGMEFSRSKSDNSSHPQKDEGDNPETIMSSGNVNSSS
# experiment-summary: GTP γ35S binding assay for S1P1 activity
# Type: biochemical
# Design: reference not given here
# applied-conditions: S1P1 receptor, agonist-induced
Number in %, nothing else.

Record CC(C)Oc1ccc(C#Cc2ccc(Cn3ccnc3)cc2)cc1Cl , field % stimulation: 81

Cc1cc(Cn2ccnc2)ccc1C#Cc1ccc(OC(C)C)c(C#N)c1 yielded % stimulation of 70

% stimulation in this record for CC(C)Oc1ccc(C#Cc2ccc(CN3CCCC3)cc2)cc1C#N : 110

Recorded result, CC(C)Oc1ccc(C#Cc2ccc(Cn3ccnc3)cc2)cc1C#N , % stimulation: 67

// field: % stimulation; key: CC(C)Oc1ccc(C#Cc2ccc(Cn3ccnc3)cc2Cl)cc1C#N ; value = 108

Origin of values: patent US9079864B2
